# Target entity: Substance-K receptor (Homo sapiens, UniProt P21452)
# Sequence (P21452 whole entry): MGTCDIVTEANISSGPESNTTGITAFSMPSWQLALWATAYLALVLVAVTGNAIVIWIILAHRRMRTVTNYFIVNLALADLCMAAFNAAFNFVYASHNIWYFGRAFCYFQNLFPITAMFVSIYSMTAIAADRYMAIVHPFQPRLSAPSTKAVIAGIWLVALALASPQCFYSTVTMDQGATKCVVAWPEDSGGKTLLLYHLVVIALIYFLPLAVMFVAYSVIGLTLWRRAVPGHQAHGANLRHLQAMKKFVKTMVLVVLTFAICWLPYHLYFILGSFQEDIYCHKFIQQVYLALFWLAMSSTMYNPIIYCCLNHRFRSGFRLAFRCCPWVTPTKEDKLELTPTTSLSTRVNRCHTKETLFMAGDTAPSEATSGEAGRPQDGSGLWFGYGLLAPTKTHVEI
Measured endpoint: Ki
Express your answer as a number followed by its unit.

Request: Data request, read-out Ki, for COC(=O)[C@@H](NC(=O)c1cc(-c2ccccc2)nc2ccccc12)c1ccccc1
Response: 8.33 µM
